system: Carrot; experiment: Further herbicidal test, various rates; type: in vivo; conditions: 5 kg/hectare; scale 0 to 5 (complete kill)
Each record here notes measured Damage to plants, post-emergence.
Returns: the value as a bare number; no unit string appended.

Below, 3 compounds whose answers are already recorded.
>>> observedvalue("O=[N+]([O-])c1ccc(Nc2c(F)c(F)nc(F)c2Cl)c(C(F)(F)F)c1")
4
>>> observedvalue("Fc1nc(F)c(Cl)c(Nc2c(Cl)c(F)c(Cl)c(F)c2Cl)c1Cl")
5
>>> observedvalue("N#Cc1c(F)c(F)c(Nc2c(Cl)c(Cl)nc(Cl)c2Cl)c(F)c1F")
5

Field: next compound
[ask] Given the entry O=[N+]([O-])c1ccc(Nc2c(F)c(F)nc(F)c2F)c(C(F)(F)F)c1 , report its measured Damage to plants, post-emergence.
[reply] 4

---

Each record here notes measured Damage to plants, pre-emergence.
system: Wheat; experiment: Herbicidal test, pre- and post-emergence; assay type: in vivo; settings: 10 kg/ha; scale 0 to 3 (complete kill)
Returns: the value as a bare number; no unit string appended.

Below, 3 molecules whose answers are already recorded.
>>> observedvalue("O=[N+]([O-])c1cc(Cl)c(Nc2c(Cl)c(F)nc(F)c2Cl)c(Cl)c1 [Compound 27]")
0
>>> observedvalue("N#Cc1cc([N+](=O)[O-])ccc1Nc1c(Cl)c(F)nc(F)c1Cl [Compound 26]")
1
>>> observedvalue("O=[N+]([O-])c1ccc(Nc2c(F)c(F)nc(F)c2Cl)c(C(F)(F)F)c1 [Compound 32]")
3

[ask] Given the entry N#Cc1cc([N+](=O)[O-])c(Nc2c(Cl)c(F)nc(F)c2Cl)c([N+](=O)[O-])c1 [Compound 34] , report its measured Damage to plants, pre-emergence.
[reply] 3

[ask] Another molecule: N#Cc1c(F)c(F)c(Nc2c(Cl)c(Cl)nc(Cl)c2Cl)c(F)c1F [Compound 42]
[reply] 3

[ask] Another molecule: O=[N+]([O-])c1ccc(Nc2c(F)c(F)nc(F)c2Cl)c([N+](=O)[O-])c1 [Compound 38]
[reply] 2

[ask] Another molecule: Fc1nc(F)c(Cl)c(Nc2c(Cl)c(F)c(Cl)c(F)c2Cl)c1Cl [Compound 43]
[reply] 1

[ask] Another molecule: O=[N+]([O-])c1cc(Cl)cc([N+](=O)[O-])c1Nc1c(Cl)c(F)nc(F)c1Cl [Compound 29]
[reply] 3

[ask] Another molecule: O=[N+]([O-])c1cc(Br)c(Nc2c(Cl)c(F)nc(F)c2Cl)c([N+](=O)[O-])c1 [Compound 40]
[reply] 1

[ask] Another molecule: O=[N+]([O-])c1ccc(Nc2c(F)c(F)nc(F)c2F)c(C(F)(F)F)c1 [Compound 28]
[reply] 3

[ask] Another molecule: O=[N+]([O-])c1ccc(Nc2c(Cl)c(F)nc(Cl)c2Cl)c(C(F)(F)F)c1 [Compound 44]
[reply] 3

---

system: Carrot; test: Further herbicidal test, various rates; type: in vivo; conditions: 5 lb/acre; scale 0 to 5 (complete kill)
reportedEndpoint: Damage to plants, post-emergence
Returns: the value as a bare number; no unit string appended.

Below, 3 compounds whose answers are already recorded.
>>> observedvalue("N#Cc1c(F)c(F)c(Nc2c(Cl)c(F)nc(F)c2Cl)c(F)c1F [Compound 19]")
0
>>> observedvalue("O=[N+]([O-])c1c(F)c(F)c(Nc2c(Cl)c(F)nc(F)c2Cl)c(F)c1F [Compound 12]")
5
>>> observedvalue("O=[N+]([O-])c1ccc(Nc2c(Cl)c(F)nc(F)c2Cl)c(C(F)(F)F)c1 [Compound 5]")
5

Field: next compound
[ask] Given the entry Fc1nc(F)c(Cl)c(Nc2c(F)c(F)c(F)c(F)c2F)c1Cl [Compound 10] , report its measured Damage to plants, post-emergence.
[reply] 2

---

tested on: Aedes aegypti (mosquito larvae); experiment: Pest toxicity test; format: in vivo; settings: 0.01% by weight; water; 1 day
reportedEndpoint: Mortality grading (kill)

[ask] Given the entry N#Cc1c(F)c(F)c(Nc2c(Cl)c(Cl)nc(Cl)c2Cl)c(F)c1F , report its measured Mortality grading (kill).
[reply] 3 (3 represents over 90% kill)

[ask] Another molecule: O=[N+]([O-])c1cc(Br)c(Nc2c(Cl)c(F)nc(F)c2Cl)c([N+](=O)[O-])c1
[reply] 3 (3 represents over 90% kill)

[ask] Another molecule: O=[N+]([O-])c1ccc(Nc2c(Cl)c(F)nc(F)c2Cl)c(C(F)(F)F)c1
[reply] 0 (O represents less than 30% kill)

[ask] Another molecule: O=[N+]([O-])c1cc(Cl)c(Nc2c(Cl)c(F)nc(F)c2Cl)c(Cl)c1
[reply] 3 (3 represents over 90% kill)

[ask] Another molecule: O=[N+]([O-])c1cc([N+](=O)[O-])c2ccccc2c1Nc1c(Cl)c(F)nc(F)c1Cl
[reply] 3 (3 represents over 90% kill)

[ask] Another molecule: O=[N+]([O-])c1cc(C(F)(F)F)ccc1Nc1c(Cl)c(F)nc(F)c1Cl
[reply] 0 (O represents less than 30% kill)

[ask] Another molecule: Fc1nc(F)c(Cl)c(Nc2c(F)c(F)c(F)c3c(F)c(F)c(F)c(F)c23)c1Cl
[reply] 1 (1 represents 30 - 49% kill)

---

test system: Aedes aegypti (mosquito larvae); test: Pest toxicity test; format: in vivo; details: 0.01% by weight; water; 1 day
reportedEndpoint: Mortality grading (kill)

>>> observedvalue("Fc1nc(F)c(Cl)c(Nc2c(F)c(F)c(Br)c(F)c2F)c1Cl")
"3 (3 represents over 90% kill)"
>>> observedvalue("CNC(=O)N(c1c(F)c(F)c(C#N)c(F)c1F)c1c(Cl)c(F)nc(OC)c1Cl")
"3 (3 represents over 90% kill)"

[ask] Given the entry N#Cc1c(F)c(F)c(Nc2c(Cl)c(F)nc(F)c2Cl)c(F)c1C#N , report its measured Mortality grading (kill).
[reply] 0 (O represents less than 30% kill)

[ask] Another molecule: O=[N+]([O-])c1ccc(Nc2c(F)c(F)nc(F)c2Cl)c([N+](=O)[O-])c1
[reply] 3 (3 represents over 90% kill)

[ask] Another molecule: O=[N+]([O-])c1ccc(Nc2c(F)c(F)nc(F)c2F)c([N+](=O)[O-])c1
[reply] 0 (O represents less than 30% kill)

---

system: Phaedon cochleariae (mustard beetles); test: Pest toxicity test; type: in vivo; details: 0.1% by weight; mustard/paper; 2 days
reportedEndpoint: Mortality grading (kill)

[ask] Lab note: need Mortality grading (kill) for CNC(=O)N(c1c(F)c(F)c(C#N)c(F)c1F)c1c(Cl)c(F)nc(OC)c1Cl on Phaedon cochleariae (mustard beetles), anyone have it?
[reply] 0 (O represents less than 30% kill)

[ask] Another compound: Fc1nc(F)c(Cl)c(Nc2ccccc2)c1Cl
[reply] 0 (O represents less than 30% kill)

[ask] Another compound: O=[N+]([O-])c1ccc(Nc2c(F)c(F)nc(F)c2F)c(C(F)(F)F)c1
[reply] 3 (3 represents over 90% kill)

[ask] Another compound: O=[N+]([O-])c1ccc(Nc2c(Cl)c(F)nc(F)c2Cl)c(C(F)(F)F)c1
[reply] 0 (O represents less than 30% kill)

[ask] Another compound: O=[N+]([O-])c1ccc(Nc2c(F)c(F)nc(F)c2Cl)c(C(F)(F)F)c1
[reply] 0 (O represents less than 30% kill)

[ask] Another compound: Fc1ccc(Nc2c(Cl)c(F)nc(F)c2Cl)cc1
[reply] 0 (O represents less than 30% kill)

[ask] Another compound: O=[N+]([O-])c1ccc(Nc2c(Cl)c(Cl)nc(Cl)c2Cl)c(C(F)(F)F)c1
[reply] 2 (2 represents 60 - 90% kill)

---

test system: Uncinula necator (vine); experiment: Fungicidal test against foliar disease D (foliage spray plus soil drench); assay type: in vivo; conditions: 100 ppm spray and drench; 10 days
Each record here notes measured Amount of disease grading, disease D.

Below, 7 compounds whose answers are already recorded.
>>> observedvalue("O=[N+]([O-])c1cc(C(F)(F)F)ccc1Nc1c(Cl)c(F)nc(F)c1Cl")
"0 (61 to 100)"
>>> observedvalue("O=[N+]([O-])c1ccc(Nc2c(F)c(F)nc(F)c2F)c([N+](=O)[O-])c1")
"3 (0 to 5)"
>>> observedvalue("O=[N+]([O-])c1ccc(Nc2c(Cl)c(F)nc(F)c2Cl)c(C(F)(F)F)c1")
"3 (0 to 5)"
>>> observedvalue("Fc1nc(F)c(Cl)c(Nc2cccc(C(F)(F)F)c2)c1Cl")
"0 (61 to 100)"
>>> observedvalue("Fc1nc(F)c(Cl)c(Nc2cc(C(F)(F)F)ccc2Br)c1Cl")
"0 (61 to 100)"
>>> observedvalue("Fc1nc(F)c(Cl)c(Nc2c(Cl)cc(Cl)cc2Cl)c1Cl")
"0 (61 to 100)"
>>> observedvalue("Fc1nc(F)c(Cl)c(Nc2c(Cl)c(Cl)c(Cl)c(Cl)c2Cl)c1Cl")
"3 (0 to 5)"

Field: next compound
[ask] Given the entry O=[N+]([O-])c1c(F)c(F)c(Nc2c(Cl)c(F)nc(F)c2Cl)c(F)c1F , report its measured Amount of disease grading, disease D.
[reply] 3 (0 to 5)
